Target: Insulin-degrading enzyme (Homo sapiens) (UniProt P14735)
Sequence (P14735 42-1019 limits assumed): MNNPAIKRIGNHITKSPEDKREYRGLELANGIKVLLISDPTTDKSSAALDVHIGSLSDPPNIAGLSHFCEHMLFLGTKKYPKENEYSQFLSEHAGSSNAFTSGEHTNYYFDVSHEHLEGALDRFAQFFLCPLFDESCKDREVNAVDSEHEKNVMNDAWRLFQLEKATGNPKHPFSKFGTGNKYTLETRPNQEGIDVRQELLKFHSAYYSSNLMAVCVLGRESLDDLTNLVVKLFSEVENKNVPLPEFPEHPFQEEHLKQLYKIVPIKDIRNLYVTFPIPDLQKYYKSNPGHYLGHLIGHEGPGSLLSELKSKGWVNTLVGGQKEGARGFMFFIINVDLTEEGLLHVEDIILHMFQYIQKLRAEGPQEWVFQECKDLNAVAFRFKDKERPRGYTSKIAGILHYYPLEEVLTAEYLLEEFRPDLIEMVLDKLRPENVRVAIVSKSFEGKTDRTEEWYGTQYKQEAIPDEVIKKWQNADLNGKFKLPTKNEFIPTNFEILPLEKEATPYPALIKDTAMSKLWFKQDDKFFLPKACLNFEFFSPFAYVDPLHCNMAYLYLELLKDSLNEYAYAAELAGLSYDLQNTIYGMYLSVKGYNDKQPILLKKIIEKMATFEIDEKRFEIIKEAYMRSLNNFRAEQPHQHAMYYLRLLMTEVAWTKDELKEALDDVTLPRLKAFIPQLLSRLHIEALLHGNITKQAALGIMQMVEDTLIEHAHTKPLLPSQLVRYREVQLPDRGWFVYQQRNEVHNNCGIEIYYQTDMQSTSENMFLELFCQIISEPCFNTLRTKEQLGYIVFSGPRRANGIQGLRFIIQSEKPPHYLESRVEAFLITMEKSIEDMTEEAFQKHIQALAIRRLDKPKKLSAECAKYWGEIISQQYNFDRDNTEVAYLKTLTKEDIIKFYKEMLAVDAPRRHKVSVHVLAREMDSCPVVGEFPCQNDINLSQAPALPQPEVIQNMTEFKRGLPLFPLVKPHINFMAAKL
Assay: inhibitors of IDE decapeptide proteolysis, dose response, counter-screen for IDE exo-site inhibitor project, biochemical, kinetic mode (AID 1259348);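 note: purified IDE bound to fluorescein-labelled 6b probe FL-6b at the exo-site; test concentration not given here; probe displacement lowers polarization so hits show a drop in FP signal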
Conditions: purified human IDE, fluorogenic decapeptide proteolysis, measured here: primary FP probe displacement screen, stronger effect = lower value
Flag rule - z-score less than -10 flags Fulfilled; the remaining entries get Not fulfilled.

Field: below-cutoff. Rule: recorded z-score strictly less than -10. Subject: OC[C@H]1[C@@H](c2ccc(C#Cc3ccccc3)cc2)[C@@H]2CN(Cc3cncnc3)CCCCN12 Fulfilled

Answer whether the molecule Cc1cccc(-c2ccc([C@@H]3[C@@H](CO)N4CCCCN(C(=O)c5ccncc5)C[C@@H]34)cc2)c1 has z-score strictly less than -10 Not fulfilled

Is the reported z-score for Cc1cccc(-c2ccc([C@H]3[C@@H](CO)N4CCCCN(C(=O)c5cccnc5)C[C@H]34)cc2)c1 strictly below -10? Fulfilled

Here's an entry: CC(C)NC(=O)N1CCCCN2[C@@H](CO)[C@H](c3ccc(C#Cc4ccccc4F)cc3)[C@@H]2C1 . Is its z-score below -10? Fulfilled

Is z-score strictly under -10 for the entry Cc1cccc(-c2ccc([C@@H]3[C@H]4CN(C(=O)c5ccncc5)CCCCN4[C@H]3CO)cc2)c1 ? Fulfilled

Lab note: confirm whether the reported z-score for this molecule is below -10, equality not counting. molecule: O=C(NC1CCCC1)N1CCCCN2[C@@H](CO)[C@H](c3ccc(/C=C/c4ccccc4)cc3)[C@@H]2C1 Fulfilled

hey, is z-score for Cc1ccccc1-c1ccc([C@@H]2[C@H]3CN(C(=O)c4ccncc4)CC(=O)N3[C@H]2CO)cc1 lower than -10 or not? Fulfilled

Confirm or reject: z-score of COc1ccc(NC(=O)N2CCCCN3[C@H](CO)[C@H](c4ccc(-c5ccccc5C)cc4)[C@@H]3C2)cc1 lies strictly below -10 Not fulfilled

Item Cc1ccccc1-c1ccc([C@@H]2[C@H]3CN(C(=O)c4cccnc4)CC(=O)N3[C@H]2CO)cc1 : z-score beneath -10, strictly? Fulfilled

Determine if Cc1cccc(-c2ccc([C@@H]3[C@@H](CO)N4CCCCN(Cc5cncnc5)C[C@@H]34)cc2)c1 shows z-score strictly lower than -10. Not fulfilled

Here's an entry: Cc1cccc(-c2ccc([C@@H]3[C@H](CO)N4CCCCN(S(=O)(=O)c5ccccc5F)C[C@@H]34)cc2)c1 . Is its z-score below -10? Fulfilled

Find out if reported z-score for Cc1ccccc1-c1ccc(C2[C@@H]3CN(C(=O)c4cnccn4)C[C@H]2N3)cc1 (stereo partly drawn) is less than -10 Fulfilled

Consider the molecule Cc1cccc(-c2ccc([C@@H]3[C@H](CO)N4CCCCN(S(=O)(=O)c5cn(C)cn5)C[C@@H]34)cc2)c1 . Is its z-score strictly less than -10? Fulfilled

I'd appreciate it if you could check whether Cc1ccccc1-c1ccc([C@@H]2[C@@H](CO)N3C(=O)CN(S(C)(=O)=O)C[C@@H]23)cc1 has z-score smaller than -10. Fulfilled

Does this molecule meet the criterion z-score < -10? CCC(=O)N1[C@H](CO)[C@H](c2ccc(-c3ccccc3OC)cc2)[C@H]1CNC(C)=O Not fulfilled

API: query returns whether the molecule falls strictly under -10 in z-score. Query: Cc1ccccc1-c1ccc([C@H]2[C@H](CO)N3C(=O)CN(C(=O)Nc4cccc(F)c4)C[C@@H]23)cc1 Not fulfilled

Strictly below -10: is that where z-score of Cc1ccccc1-c1ccc([C@H]2[C@@H](CO)N3CCCCN(C(=O)NC4CCCC4)C[C@@H]23)cc1 sits? Fulfilled

Dear colleague, could you confirm whether z-score of Cc1ccccc1-c1ccc([C@@H]2[C@@H](CO)N3CCCCN(C(=O)CN4CCOCC4)C[C@@H]23)cc1 falls below -10? Thanks. Not fulfilled

Lab log: compare recorded z-score with -10; is it strictly lower for COc1ccccc1C#Cc1ccc([C@H]2[C@H]3CN(C(=O)C4CCC4)CCCCN3[C@H]2CO)cc1 ? Fulfilled

Report whether reported z-score is lower than -10 (strictly) for Cc1ccccc1-c1ccc([C@H]2[C@@H](CO)N3CCCCN(C(=O)Nc4ccccc4)C[C@@H]23)cc1 Not fulfilled

Please check: z-score for CO[C@H]1CN(C)C(=O)c2cc(NC(=O)c3ccc(Oc4ccccc4)cc3)ccc2OC[C@H](C)NC[C@H]1C , strictly under -10 or not? Fulfilled

Record Cc1ccccc1-c1ccc(C2[C@@H]3CN(C(=O)C4CCOCC4)C[C@H]2N3)cc1 (stereo partly drawn) : is its z-score strictly below -10? Not fulfilled

In plain terms, does CCS(=O)(=O)N1CCCCN2[C@H](CO)[C@@H](c3ccc(-c4ccccc4C)cc3)[C@@H]2C1 come in under -10 for z-score? Fulfilled

Consider Cc1cccc(-c2ccc([C@@H]3[C@@H](CO)N4CCCCN(C(=O)NC(C)C)C[C@@H]34)cc2)c1 . Does its z-score lie strictly below -10? Not fulfilled

For this molecule, is z-score lower than -10? Cc1cccc(-c2ccc([C@@H]3[C@@H](CO)N4C(=O)CN(C(=O)c5cnccn5)C[C@@H]34)cc2)c1 Fulfilled

z-score strictly < -10 for this molecule? Cc1ccccc1-c1ccc([C@H]2[C@H]3CN(C(=O)NC4CCCC4)CCCCN3[C@H]2CO)cc1 Not fulfilled

Strictly below -10 in z-score? Cc1ccccc1-c1ccc([C@H]2[C@@H](CO)N3CCCCN(Cc4cccnc4)C[C@H]23)cc1 Fulfilled

Does this molecule meet the criterion z-score < -10? Cc1ccccc1-c1ccc([C@@H]2[C@H]3CN(C(=O)Cc4ccccn4)CC(=O)N3[C@H]2CO)cc1 Fulfilled

Is z-score of Cc1cccc(-c2ccc([C@@H]3[C@@H](CO)N4CCCCN(S(=O)(=O)c5cccs5)C[C@@H]34)cc2)c1 strictly below -10? Not fulfilled

Identify whether the molecule Cc1ccccc1-c1ccc([C@H]2[C@@H](CO)N3C(=O)CN(C(=O)Nc4ccc(F)cc4)C[C@H]23)cc1 records z-score below -10. Fulfilled

Strictly below -10: is that where z-score of Cc1ccccc1-c1ccc([C@@H]2[C@@H](CO)N3CCCCN(S(C)(=O)=O)C[C@@H]23)cc1 sits? Fulfilled

Confirm or reject: z-score of Cc1ccccc1-c1ccc([C@H]2[C@H](CO)N3C(=O)CN(S(C)(=O)=O)C[C@@H]23)cc1 lies strictly below -10 Not fulfilled

State whether -10 exceeds z-score recorded for Cc1ccccc1-c1ccc([C@H]2[C@@H](CO)N3CCCCN(C(=O)Cc4ccccn4)C[C@@H]23)cc1 . Not fulfilled
